Test: MTT cell viability/cytotoxicity assay
Format: cell-based
Conditions: human, Hep G2 cells, MTT, read-out: Cytotoxicity LC50
QUANTITY: CC50 at 24 h

* [O-][S+]1CCCCS1 (stereo not shown) [S-XL6, 1,2-dithiane-1-oxide] | ~446 µM

====

Test: Relative cell viability of transfected NSC-34 cells
Type: cell-based, mouse
Conditions: mouse, NSC-34 cells expressing EGFP-G93A, G93A; 20 uM, 48 h; replicates
QUANTITY: viability at 48 h, 20 µM (%)

• [O-][S+]1CCCCS1 (stereo not shown) [S-XL6, 1,2-dithiane-1-oxide] = 83

====

Experiment: MTT cell viability/cytotoxicity assay
Type: cell-based
Details: human, Hep G2 cells, 1000 µM, read-out: viable cells compared to vehicle control (MTT)
QUANTITY: viability at 24 h, 1000 µM (%)

* [O-][S+]1CCCCS1 (stereo not shown) [S-XL6, 1,2-dithiane-1-oxide] | 14
